Test system: DU-145 prostate
assay.explanation: NCI-60 one-dose screen, 48 h
experimental.setup: 10 µM unless noted
Procedure: Cells are grown in 96 well plates and exposed to the test compound for 48 hours. Compounds are tested at a single concentration, which is 10^-5 M for most compounds. The reported endpoint is percent growth (GI% or GIPRCNT), where numbers from 0 - 100% represent growth inhibition, and numbers from -100% - 0 represent cell death. For example, a value of 40 represents 60% growth inhibition. A value of 0 means no net growth occurred over the course of the experiment. […]
About 83,000 compounds went through this panel and 20% of them were active in at least one assay; those are over-represented in the sample as a whole. The source made the active and inactive calls. How the source made its calls: active means growth percent below 10; inactive means the rest.
Select the correct class. Options are active, inactive and nothing else.

Worked cases, answers included:
>  <molecule>
O=S(=O)(Nc1ccc(OC(F)F)cc1)c1ccc(-c2cnc(C3CC3)o2)cc1

>  <assigned.category>
inactive

$$$$
>  <molecule>
CN1CCN(CCCOc2cccc3nc(Nc4ccc(Cl)c(F)c4)ccc23)CC1

>  <assigned.category>
inactive

$$$$
>  <molecule>
O=c1ccccc(-c2ccc(Br)cc2)c1O

>  <assigned.category>
inactive

$$$$

Assay outcome for O=C(Nc1ccc(Cl)cc1)c1cc2cc(F)ccc2cc1O : what was it?
inactive

Then what about the molecule Cn1ccnc1C(=O)/C=C/c1ccccc1 ?
active

Then what about the molecule COc1ccc(-n2nc(C)c3c(Nc4ccc(NC(=O)Nc5cccc(C(F)(F)F)c5)cc4)ncnc32)cc1 ?
inactive

Then what about the molecule COc1ccc(-c2cc(=O)c3c(OC)c4ccoc4cc3o2)cc1 ?
inactive

Then what about the molecule Cc1cc2c3ccccc3ccc2[n+]2ccccc12 ?
inactive

Then what about the molecule CCn1c(O)c(/C=N/NC(=O)C(C)c2ccc(CC(C)C)cc2)sc1=S (stereo unspecified) ?
inactive

Then what about the molecule CC(=O)Nc1ccc(-n2c(O)c(/C=N/NC(=O)Cc3ccccc3Nc3c(Cl)cccc3Cl)sc2=S)cc1 ?
inactive

Then what about the molecule CCOC(=O)c1c(CN2CCN(C)CC2)nc2ccc(Cl)cc2c1-c1ccccc1 ?
inactive
